- Test system: CAKI-1
- Measurement protocol: NCI tumour cell line growth inhibition, 48 h
The source made the active and inactive calls. No stated cut-off is given here; in the data, active = GI50 up to about 1.1 µM and inactive = higher.
Log the outcome using a class from class 1 = active, class 0 = inactive

Which outcome was assigned to Cc1ccc(C(=O)NCc2ccccc2)cc1/N=N/N(C)C in this test?
class 0

Next: CC(C)(C)OC(=O)N1CCC(C(=O)O)CC1
class 0

Now the same for O=C(NCCO)c1ccc(Cl)cc1
class 0

And the next one, CC(=O)N1c2ccccc2C(C)C1c1[nH]c2ccccc2c1C (stereo not given) ?
class 0

Param item: N#Cc1c(-c2ccc(Cl)cc2)c(C#N)c(=O)n(NS(=O)(=O)c2ccccc2)c1S
class 0

Param item: S=c1sc2c(Cl)nc(Cl)nc2n1-c1ccccc1
class 0

Please answer likewise for CC(C)C[C@H]1[C@@H](OCc2ccccc2)COS(=O)(=O)N1[C@H](C)c1ccccc1
class 0

Also check C/C=C(\C)c1cc(=O)c2c(C)cc3c(c2o1)C(OC)(OC(C)=O)c1c(O)c(C2CC(C)(N(C)C)C(OC(C)=O)C(C)O2)cc(C2CC(N(C)C)C(OC(C)=O)C(C)O2)c1C3=O (stereo not given)
class 1

Another: NNC(=O)c1nnn(CCc2ccccc2)c1C(=O)NN
class 0

Consider next the compound C=CCOC1=C(OCC=C)C(C2COC(C)(C)O2)OC1=O (stereo not given) in the same way.
class 0

* * *

- Test system: SF-539
- Measurement protocol: NCI tumour cell line growth inhibition, 48 h
Calls of active or inactive are those of the source. Rule as the data show it: active = GI50 up to about 1.1 µM and inactive = higher. Where a SMILES comes first, the peptide text is derived from it. The star is where a group is joined. ONb = O=[N+]([O-])c1ccc(CO*)cc1; Boc = CC(C)(C)OC(=O)*
Result type: GI50

// query GI50 value for entry CSc1nncc2[nH]cnc12
> 100 µM (inactive)

Same thing, different molecule: CC[C@@H]1CSC(/C=C/C2OC3OC(C)(C)OC3C3OC(C)(C)OC23)=N1 (stereo partly specified)
4.84 µM (inactive)

Another molecule to look at: COC(=O)C1=C(C(=O)OC)SC2(S1)C(C(=O)OC)=C(C(=O)OC)Sc1c2ssc1=O
1.15 µM (inactive)

Another molecule to look at: CC1=CC(=O)NP(=O)(C23CC4CC(CC(C4)C2)C3)N1 (stereo unspecified)
> 100 µM (inactive)

Cool, now COc1cc2ccc1NC(=O)N1CCN(CC1)C(=O)Nc1ccc(cc1OC)-c1ccc(c(OC)c1)NC(=O)N1CCN(CC1)C(=O)Nc1ccc-2cc1OC
> 100 µM (inactive)

Can you check CCCCN(CCCC)/C(=N\C#N)NCc1ccccc1 next?
23.8 µM (inactive)

Next molecule: Cc1ccc(Nc2ccc(Nc3ccc(C)cc3S(=O)(=O)O)c3c2C(=O)c2ccccc2C3=O)c(S(=O)(=O)O)c1
> 100 µM (inactive)

One more molecule: C=C1[C@@H]2CCC3[C@]4(C)C(CC[C@@]5(C)C(=O)O[C@H](O)[C@@H]45)[C@H](O)[C@]3(C2)[C@H]1OC1OC(CO)C(O)C(O)C1O (stereo partly specified)
> 50 µM (inactive)

Lookup CC(C)COC(=O)N1N=NC2C3OC(CC3=O)C21 (stereo unspecified)
> 100 µM (inactive)

Then what about the molecule O=C(CC1(O)C(=O)Nc2c(Cl)cc(Cl)cc21)c1ccccc1 (stereo unspecified) ?
> 100 µM (inactive)

Follow-up item: CC(C)CC(NC(=O)OC(C)(C)C)C(=O)NC(CCC(=O)OCc1ccc([N+](=O)[O-])cc1)C(=O)OCc1ccc([N+](=O)[O-])cc1 (stereo not drawn) (Boc-Leu-Glu(ONb)-ONb; configuration not given here)
18.7 µM (inactive)

* * *

- Test system: CAKI-1
- Measurement protocol: NCI tumour cell line growth inhibition, 48 h
The source made the active and inactive calls. No stated cut-off is given here; in the data, active = GI50 up to about 1.1 µM and inactive = higher.
// one of active, inactive, no free text

What classification did CC(=O)NNc1nc(C)c(C(=O)NNC(=O)C(=O)Nc2cccc(C(C)=O)c2)s1 end up with in this test?
inactive

Now this one: COc1cc(C2c3cc4c(cc3OC3(O)COC(=O)C23)OCO4)cc(OC)c1OC (centres undefined)
inactive

Again, but for CC1OC(OC2C(O[C@@H]3C[C@@H]4CC[C@@H]5[C@H](CC[C@]6(C)C7C(C[C@@H]56)O[C@]5(CC[C@@H](C)CO5)[C@H]7C)[C@@]4(C)C[C@H]3O)OC(CO)C(O)C2O)C(O)C(O)C1O (some centres undefined)
inactive

Now give it for CCCCC(C(=O)CCC(=O)Nc1ccc(Cl)c(Cl)c1)C(=O)C(C)C (centres undefined) too.
inactive

Try this compound next: COC(=O)CNC(=O)CCC(C)[C@H]1CCC2C3C(C[C@H](OC(C)=O)[C@@]21C)[C@@]1(C)CCC2(C[C@H]1C[C@H]3OC(C)=O)OOC1(CCCCC1)OO2 (some centres undefined)
inactive

Similarly, O=C(CCc1ccccc1)On1c(-c2ccccc2)nc2ccccc2c1=S ?
inactive

What do we get for CC(C)c1ccccc1NC(=O)/C(Cl)=C1/Sc2ccccc2NC1=O ?
inactive

Next record, please: O=[N+]([O-])c1ccc2nc(Nc3ccccc3)c(Nc3ccccc3)nc2c1
active

Next record, please: O=C1c2cccc3cccc(c23)C(=O)N1CCCNCCCCNCCCNCCCN1C(=O)c2cccc3cccc(c23)C1=O
inactive

* * *

- Test system: UACC-257
- Measurement protocol: NCI tumour cell line growth inhibition, 48 h
The source made the active and inactive calls. No stated cut-off is given here; in the data, active = GI50 up to about 1.1 µM and inactive = higher.
Result type: GI50

Which GI50 reading was recorded for the compound Cn1ccnc1C(O)(c1nccn1C)c1nccn1C ?
> 100 µM (inactive)

Consider next the compound Cc1nc(-c2nc(C)c(C(=O)NN(C)C)s2)sc1C(=O)NN(C)C in the same way.
> 100 µM (inactive)

Another compound: CCC1c2[nH]c3ccccc3c2C[C@H]2C(=O)NC(CCC(=O)OC(C)(C)C)C(=O)N12 (stereo partly specified)
40.2 µM (inactive)

Another compound to check: O=C1OC(O)C(Oc2c(Cl)cccc2Cl)=C1Cl (stereo unspecified)
19.5 µM (inactive)

Another compound: CC(=O)Nc1cc2nc3n(c2cc1C)CCC3OC(C)=O (stereo unspecified)
> 100 µM (inactive)

Repeat for the following compound: O=C(O)/C(=C\c1ccccc1)Cc1ccccc1
> 100 µM (inactive)

Ok, now Nc1ncnc2c1N=C(c1ccccc1)CC(c1ccccc1)N2 (stereo unspecified)
> 100 µM (inactive)

Could you do the same for C=CCn1c(N)c(C#N)c(C#N)c1-c1ccccc1 , please?
> 100 µM (inactive)

Continue with O=[N+]([O-])c1cc(-c2nc(-c3ccccc3)c(-c3ccccc3)[nH]2)c(O)c([N+](=O)[O-])c1
24.2 µM (inactive)

Also, NC1CC(N)c2c(Br)sc(Br)c21 (stereo unspecified) please.
> 100 µM (inactive)

Now the compound O=C(c1ccncc1)C1C(=O)c2ccccc2C1C1(O)c2ccccc2CC1C(O)c1ccncc1 (stereo unspecified)
52.7 µM (inactive)

* * *

- Test system: HOP-18
- Measurement protocol: NCI tumour cell line growth inhibition, 48 h
Calls of active or inactive are those of the source. Cut-off read from the data, not from the text of the source: active = GI50 up to about 1.1 µM and inactive = higher.
Result type: GI50

Recorded GI50 of CN(C)CCNC(=O)c1cccc2[nH]c(-c3ccc(Cl)cc3)nc12 , please.
14.4 µM (inactive)

Thanks! And COc1cc2c(c(OC)c1OC)-c1ccc(SC)c(=O)cc1C(CC(=O)Oc1cccc(C#N)c1)C2 (stereo unspecified) ?
> 100 µM (inactive)

Check C[C@@H]1[C@H](c2ccccc2)O[B-]2(c3ccc(Br)cc3)OC(=O)C[N+]12C (stereo partly specified) too.
> 100 µM (inactive)

C=CCNC(=S)N1CC(C)C(=O)Nc2cc(Cl)ccc21 (stereo unspecified) , same question.
39.4 µM (inactive)

Entry Cc1c2cc[n+](Cc3ccc(I)cc3)cc2c(C)c2c1[nH]c1ccccc12 please
1 µM (active)

What do you get for COc1c(C)cc2c(C(C)C)c(O)c(O)c(C=O)c2c1O ?
14.9 µM (inactive)

* * *

- System: DMS-273
- Measurement protocol: NCI tumour cell line growth inhibition, 48 h
Calls of active or inactive are those of the source. Cut-off read from the data, not from the text of the source: active = GI50 up to about 1.1 µM and inactive = higher.
Choose one outcome from this list and give only that: t for active, f for inactive

For this compound, state the assay outcome: Cc1ccc(C(=O)NCc2ccccc2)cc1/N=N/N(C)C
f

Likewise for Cc1cccc2nc3c(C(=O)NCCN(C)C)cccc3cc12 ?
t

Do the same for CN(C)CCNC(=O)c1cccc2[nH]c(-c3ccc(Cl)cc3)nc12 please
f

Please answer likewise for O=C(O)CCc1coc2ccc(O)cc12
f

Can you handle CCOC(=O)C1S/C(=N/c2ccc(Cl)cc2C)N=C1C (configuration not stated) next?
f

Further, for C=CCNC1=C(C(=O)OCC)C(=O)CO1 ?
f

Could you do the same for Cc1cnc(NCCCN(C)C)c2c1[nH]c1ccc3cc(O)ccc3c12 , please?
t

Again, but for CC(C)C12C=CC(C)(CC1)n1c(=O)c3cc4ccccc4cc3c(=O)n12 (configuration not stated)
f

Here is the next compound: CCCCC(C(=O)CCC(=O)Nc1ccc(Cl)c(Cl)c1)C(=O)C(C)C (configuration not stated)
f

What would you report for C=CCc1cc(OC)c2c(c1)C(OC)CC(c1ccc(OC)c(OC)c1)O2 (configuration not stated) ?
f

Try the compound CC1=NOC(=O)/C1=C/c1ccccc1O
f

Please answer likewise for COc1ccc2c(c1)C1(C=N2)CCN(C(C)=O)CC1
f

Cited source: ChEMBL document CHEMBL1201862
